Test system: MCF7 breast
TEST PROTOCOL: NCI tumour cell line growth inhibition, 48 h
READOUT LABEL: TGI

[
  {
    "COMPOUND": "O=S(=O)(/N=C1/SC(=Nc2ccccc2)N(c2ccccc2)/C1=N/S(=O)(=O)c1ccccc1)c1ccccc1",
    "READOUT LABEL": "TGI",
    "RECORDED RESULT": "52.7 µM"
  },
  {
    "COMPOUND": "CN(C)CCNc1c2c(c(NCCN(C)C)c3c(CO)c[nH]c13)C(=O)c1ccccc1C2=O",
    "READOUT LABEL": "TGI",
    "RECORDED RESULT": "> 34.1 µM"
  },
  {
    "COMPOUND": "Cc1cc(C)c2c(c1)CC1(Cc3c(C)cc(C)cc3C1=O)C2=O (centres undefined)",
    "READOUT LABEL": "TGI",
    "RECORDED RESULT": "> 100 µM"
  },
  {
    "COMPOUND": "O=C1NC(O)CCN1C1CC(O)C(CO)O1 (centres undefined)",
    "READOUT LABEL": "TGI",
    "RECORDED RESULT": "> 100 µM"
  },
  {
    "COMPOUND": "C[C@]12CC[C@H]3[C@@H](CCC4=C[C@@H](OC5OCC(OC6OC(CO)C(O)C(O)C6O)C(O)C5O)CC[C@@]43C=O)[C@@]1(O)CCC2C1=CC(=O)OC1 (some centres undefined)",
    "READOUT LABEL": "TGI",
    "RECORDED RESULT": "> 100 µM"
  },
  {
    "COMPOUND": "O=C(Nc1nc(C23CC4CC(CC(C4)C2)C3)cs1)c1cc2cc([N+](=O)[O-])ccc2oc1=O",
    "READOUT LABEL": "TGI",
    "RECORDED RESULT": "> 100 µM"
  },
  {
    "COMPOUND": "C[C@@H]1OCC(O)C([C@H]2OC(c3ccccc3)=N[C@H]2CO)O1 (some centres undefined)",
    "READOUT LABEL": "TGI",
    "RECORDED RESULT": "> 100 µM"
  },
  {
    "COMPOUND": "c1cc2ccc1CNCCN1CCNCc3ccc(cc3)Oc3ccc(cc3)CNCCN(CCNCc3ccc(cc3)O2)CCNCc2ccc(cc2)Oc2ccc(cc2)CNCC1",
    "READOUT LABEL": "TGI",
    "RECORDED RESULT": "2.1 µM"
  },
  {
    "COMPOUND": "CC1(C)Oc2ccc3c(=O)c4ccccc4oc3c2C1C(=O)O (centres undefined)",
    "READOUT LABEL": "TGI",
    "RECORDED RESULT": "> 100 µM"
  }
]
